tested on: K4 kissing-loop RNA reporter; assay: apparent KD of K4 kissing-loop reporter; higher = weaker reporter binding; details: Eterna round: R107; input ligand: theophylline 20 uM;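 note: bound reporter read as fluorescence of individual clusters on recovered sequencing chips by microscopy, with normalized cluster intensities fitted with a binding model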
measured.parameter: apparent KD of K4 kissing-loop reporter

1. UAUAUGCAGUGAUGUUGCGGCACACUUCCGAAGGAUAUGUCCGGUGACAGAAGGUCGGUCCAUGGGACAUCACGUGUGCUUGAUG [theeternabot_exclusion_KL_FMN_A_15] :: 529 nM
2. UCGCAUCUCAGAAGGAGCGACAGUGAUUCUGAUAGAAAUCUGAGUGAUGUUCAGAACAGCUGUCAGGUAGGUCGCUGAGAUGCGA [Arg B Ex t8] :: 413 nM
3. UAUUUAAUGUCAGGAUAUCGUAUACGAGUGAUGUUCGUAUUUCUACUAUAGAUUAUUUAAAUUUUUCGAGAAGGGACAAUAUUUA [KL-SSFMN-B4] :: 186 nM
4. GUGCAGUGAUGUUGCACGAGGAAAGACGAUACCAGCCGUAAAUAAGGCCCUUGGCAGCGUGGGCUAGCACAAAAUAUGCUAGUCU [Laleingeat] :: 68.4 nM
5. AGACUACCACACUGUCAAUAGACAGUGAACUCGGAUAUGCUGAUAAGCAGAAGGAGUGAUGUUCCGAGGUAGUCAAUAAAAUAAU [FmnAX 13 C32+G66] :: 448 nM
6. GGACGACAGUCGGCCGCCACUCACAGCCGAGUGAUGUUCGGGAUUGUAGCGGAGUGAUGUUUCGCGAGGACCGGGACUGCAGUCC [Same State Typtophan B GF 27] :: 171 nM

Reference source: the supplement of paper PMC9170038
